All values here come from patent EP4667468A1.

Reported pIC50 values for the following molecules.
biological target: IL-1β secretion of THP-1 cells (Homo sapiens); assay: Effect of NLRP3 inhibitor on IL-1β secretion of THP-1 cells (AlphaLISA); conditions: PMA 50nM, LPS 100ng/ml, Nigericin 10µM, IL-1β in supernatant
Sequence (Q96P20 whole entry): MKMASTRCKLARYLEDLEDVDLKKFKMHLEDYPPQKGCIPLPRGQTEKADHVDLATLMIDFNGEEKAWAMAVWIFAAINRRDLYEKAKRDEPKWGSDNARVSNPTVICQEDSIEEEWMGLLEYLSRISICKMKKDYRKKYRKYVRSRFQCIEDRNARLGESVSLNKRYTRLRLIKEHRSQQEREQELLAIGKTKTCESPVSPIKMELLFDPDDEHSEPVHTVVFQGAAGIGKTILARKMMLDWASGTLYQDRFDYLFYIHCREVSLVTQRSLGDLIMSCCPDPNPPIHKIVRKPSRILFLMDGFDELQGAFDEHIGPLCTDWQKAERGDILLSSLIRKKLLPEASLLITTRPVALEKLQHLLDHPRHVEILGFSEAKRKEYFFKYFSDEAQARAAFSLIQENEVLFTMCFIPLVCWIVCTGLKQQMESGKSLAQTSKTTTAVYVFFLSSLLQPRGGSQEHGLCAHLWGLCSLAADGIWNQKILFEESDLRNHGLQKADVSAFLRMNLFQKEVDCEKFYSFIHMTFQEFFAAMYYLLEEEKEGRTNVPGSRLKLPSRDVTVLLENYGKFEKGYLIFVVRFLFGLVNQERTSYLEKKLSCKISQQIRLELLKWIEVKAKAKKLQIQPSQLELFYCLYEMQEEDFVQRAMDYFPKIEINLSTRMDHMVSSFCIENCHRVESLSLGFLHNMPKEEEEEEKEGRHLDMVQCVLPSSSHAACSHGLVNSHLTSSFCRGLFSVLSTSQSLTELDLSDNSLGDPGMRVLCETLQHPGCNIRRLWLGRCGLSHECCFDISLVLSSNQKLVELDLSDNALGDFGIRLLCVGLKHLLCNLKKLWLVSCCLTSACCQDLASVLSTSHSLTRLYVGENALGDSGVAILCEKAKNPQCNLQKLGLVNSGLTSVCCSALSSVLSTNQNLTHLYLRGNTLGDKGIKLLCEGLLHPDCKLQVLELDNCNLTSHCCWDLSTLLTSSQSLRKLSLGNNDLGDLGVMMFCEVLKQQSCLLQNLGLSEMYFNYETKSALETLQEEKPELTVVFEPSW
pIC50: −log10 of the molar value.

Example results:
* Cc1cc(C(F)(F)F)cc(O)c1-c1ccc2nc(N3CCOCC3)nn2n1 [compound 423] | 6.30 to 7.00
* Cc1cc(C(F)(F)F)cc(O)c1-c1ccc2oc(N3CCN(S(C)(=O)=O)CC3)nc2n1 [compound 390] | > 7.30
* CCN1C[C@H](F)C[C@@H](Nc2nc3nc(-c4c(C)cc(C(F)(F)F)cc4O)ccc3o2)C1 [compound 397] | 6.30 to 7.00
* CC(=O)NC[C@@H]1COCCN1c1nc2c(C)cc(-c3c(C)cc(C(F)(F)F)cc3O)nn2n1 [compound 442] | > 7.30
* Cc1cc(C(F)(F)F)cc(O)c1-c1cc(C)c2nc(N[C@@H]3CCCN(C)C3)nn2n1 [compound 446] | > 7.30
* CCN1CCC[C@@H](Nc2nc3nc(-c4c(C)cc(C(F)(F)F)cc4O)ccn3n2)C1 [compound 448] | > 7.30
* Cc1cc(C(F)(F)F)cc(O)c1-c1ccc2nc(N[C@@H]3CCCN(C)C3)nn2n1 [compound 445] | > 7.30
* Cc1cc(C(F)(F)F)cc(O)c1-c1ccc2[nH]c(NCC(C)(C)O)nc2n1 [Compound 6] | 6.30 to 7.00
* Cc1cc(C(F)(F)F)cc(O)c1-c1ccc2oc(N3CCOC[C@H]3C)nc2n1 [compound 371] | 7.00 to 7.30
* Cc1cc(C(F)(F)F)cc(O)c1-c1ccn2nc(N3CCOCC3)nc2n1 [compound 426] | > 7.30

Prompt: Fill blank: measured pIC50 of the molecule CCS(=O)(=O)N1CCN(c2nc3nc(-c4c(C)cc(C(F)(F)F)cc4O)ccc3o2)CC1 [compound 388] is ____.
Completion: 7.00 to 7.30

Prompt: Item: Cc1cc(C(F)(F)F)cc(O)c1-c1cc(C)n2nc(N[C@H]3CCCN(CCO)C3)nc2n1 [compound 460]
Completion: > 7.30

Prompt: Item: CCN1CCC[C@@H](n2ccc3cc(-c4c(C)cc(C(F)(F)F)cc4O)nnc32)C1 [11-a]
Completion: > 7.30

Prompt: Item: Cc1cc(C(F)(F)F)cc(O)c1-c1ccc2oc(N[C@@H]3CCCN(CCO)C3)nc2n1 [compound 404]
Completion: > 7.30

Prompt: Item: CCN1CCC[C@@H](Nc2nc3ccc(-c4c(C)cc(C(F)(F)F)cc4O)nn3n2)C1 [compound 439]
Completion: > 7.30

Prompt: Item: Cc1cc(C(F)(F)F)cc(O)c1-c1cc(C)c2nc(N3CCOCC3)nn2n1 [compound 424]
Completion: > 7.30

Prompt: Item: Cc1cc(C(F)(F)F)cc(O)c1-c1ccc2oc(N3CCN(S(=O)(=O)C4CC4)CC3)nc2n1 [compound 392]
Completion: > 7.30

Prompt: Item: CCS(=O)(=O)N1CCN(c2nc3nc(-c4c(C)cc(C(F)(F)F)cc4O)ccc3o2)C[C@@H]1C [compound 394]
Completion: 7.00 to 7.30

Prompt: Item: CCN1CCC[C@H](Nc2nc3nc(-c4c(C)cc(C(F)(F)F)cc4O)cc(C)n3n2)C1 [compound 462]
Completion: > 7.30

Prompt: Item: Cc1cc(C(F)(F)F)cc(O)c1-c1ccc2oc(N[C@@H]3CCCN(C4CC4)C3)nc2n1 [compound 399]
Completion: > 7.30

Prompt: Item: Cc1cc(C(F)(F)F)cc(O)c1-c1cc(C)n2nc(N[C@@H]3CCCN(C)C3)nc2n1 [compound 443]
Completion: > 7.30

Prompt: Item: Cc1cc(C(F)(F)F)cc(O)c1-c1ccc2nc(N3CCS(=O)(=O)CC3)nn2n1 [compound 422]
Completion: 6.30 to 7.00

Prompt: Item: Cc1cc(C(F)(F)F)cc(O)c1-c1ccc2oc(N3CCS(=O)(=O)CC3)nc2n1 [compound 384]
Completion: > 7.30

Prompt: Item: Cc1cc(C(F)(F)F)cc(O)c1-c1ccc2oc(N[C@@H]3CCCN(C(C)C)C3)nc2n1 [compound 400]
Completion: > 7.30

Prompt: Item: Cc1cc(C(F)(F)F)cc(O)c1-c1ccc2oc(N3CC4CCC(C3)O4)nc2n1 [compound 381]
Completion: 6.30 to 7.00
